In this section, each of the variants is paired with its reported self-cleavage.
B1: LINE1-full (parent)
chain: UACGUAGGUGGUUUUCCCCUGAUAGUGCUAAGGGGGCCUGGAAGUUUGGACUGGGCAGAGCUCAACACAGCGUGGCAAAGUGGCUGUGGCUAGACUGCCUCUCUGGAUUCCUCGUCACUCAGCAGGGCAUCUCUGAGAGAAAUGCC

Variants of: B1
assay.procedure: self-cleavage, relative activity (ratio to wild type); higher = more cleavage; in vitro, sequencing; the parent is a self-cleaving ribozyme
Answer with the value's number alone.

Answered examples (10):
* A31U A79U | 2.19
* U46C A124U | 1.25
* U52A A67U | 0.05
* U46A U85A | 0.06
* A77G U108C | 2.51
* U87G U115A | 0.24
* U52A U104C | 1.36
* U73A C113U | 1.41
* A42G C51A | 2.3
* G10A U73A | 1.55

Problem: Can you share its self-cleavage? I mean this variant: "A79G"
Result: 1.25

Problem: Look up self-cleavage for this variant: U52A C113A
Result: 1.24

Problem: Can you look up the measured self-cleavage of A6G U100G for me?
Result: 0.95

Problem: Which self-cleavage reading was recorded for the variant G48U A121G ?
Result: 0.99

Problem: Reported self-cleavage, variant C37A U130C : ____
Result: 1.39

Problem: Data request, read-out self-cleavage, for G32A U143C
Result: 1.4

Problem: Which self-cleavage is listed for U9C A140G ?
Result: 1.19

Problem: Fill blank: measured self-cleavage of the variant U12A U52G is ____.
Result: 2.35
